# Tested target: human Claudin18.2 (human)
# Method summary: cell-based or functional assay
Property name: in vitro cell killing Emax, NUGC4-claudin18.2 high expression cells (CellTiter-Glo)
Note: the reply should be a number with no unit written.

Short answer for ADC-4 (antibody, human IgG1, kappa, V domains shown, compound 9-A coupled to sulfhydryl groups after TCEP reduction; mean drug loading n=4.06 per antibody; positions not given) VH: EVQLVESGGGLVQPGGSLRLSCAASGFTFSDYGIHWVRQAPGKGLEWIAYISRGSSTIYYADTVKGRFTISRDNAKNSLYLQMTSLRAEDTAVYYCARGGYDTRNAMDYWGQGTTVTVSS VL: DIVMTQSPDSLAVSLGERATISCKSSQSLLNSGNQKNYLAWYQQKPGQPPKLLIYGASTRASGVPDRFSGSGSGTDFTLTISSLQAEDVAIYHCQNDLYYPLTFGQGTKLEIKR : in vitro cell killing Emax, NUGC4-claudin18.2 high expression cells (CellTiter-Glo) was 85
